Measured TGI, listed per entry.
Test system: SK-MEL-2 melanoma
assay-method-text: NCI tumour cell line growth inhibition, 48 h
parameter-measured: TGI

compound=CCOC(=O)C(/C=N\C(=S)Nc1c(CC)cccc1C(C)(C)C)=C(/O)c1ccccc1 parameter_measured=TGI result="> 100 µM"
compound=Cn1ncc(NC(=O)c2nc(-c3c(F)cccc3F)sc2N)c1N1CC[C@@H](N)[C@H](F)CC1 parameter_measured=TGI result="13.5 µM"
compound=C[N+](C)(C)CCN(Cc1cccs1)c1ccccn1 parameter_measured=TGI result="> 100 µM"
compound=O=C(N[C@@H](c1ccccc1)[C@@H](O)C(=O)OCc1ccc2c(c1)OCO2)c1ccccc1 parameter_measured=TGI result="> 100 µM"
compound=O=C1C=CC(=O)c2cc3cc(CO)ccc3cc21 parameter_measured=TGI result="32.8 µM"
compound="CCOC(=O)C12CCCC1(O)N(NC(N)=O)C(C)=C2C(=O)OC (stereo not given)" parameter_measured=TGI result="> 100 µM"
compound=CC(C)(C)c1ccc(C(C)(C)C)c(N2C(=O)[C@@H]3[C@@H]4C=C[C@@H](C4)[C@]3(C)C2=O)c1 parameter_measured=TGI result="53.1 µM"
compound="CC1(C)C(N(O)C(=O)Nc2ccc(Cl)cc2)N(c2ccc(Cl)cc2)C(=O)N1CC(=O)N/N=C/C=C/c1ccc([N+](=O)[O-])o1 (stereo not given)" parameter_measured=TGI result="4.42 µM"
compound=O=C1Nc2cc(Cl)ccc2C(=O)N2CCC[C@@H]12 parameter_measured=TGI result="> 100 µM"
compound=Cc1c2c(cc3c1[nH]c1ccccc13)C(c1ccc(Cl)cc1)=NCC2 parameter_measured=TGI result="7.9 µM"
compound=CCC(=O)c1cc(C(=O)C(=S)SC)cc(C(=O)C(=S)SC)c1 parameter_measured=TGI result="> 100 µM"
compound=Cc1cnc(-n2c(C)nc3cc(Cl)ccc3c2=O)s1 parameter_measured=TGI result="> 100 µM"
compound=COc1cc(/C=C/c2cc(/C=C/c3ccc(O)c(OC)c3)n(-c3c(Cl)cccc3Cl)c(=O)n2)ccc1O parameter_measured=TGI result="12.9 µM"
compound=O=C1C(Cl)=C(N2CCN(CCOCCO)CC2)C(=O)c2ncccc21 parameter_measured=TGI result="> 10 µM"
compound="CNC(=O)NCC1OC(n2cnc3c(NC(=O)Nc4ccccc4)ncnc32)C(O[Si](C)(C)C(C)(C)C)C1CC(=O)N(C)OC (stereo not given)" parameter_measured=TGI result="> 91.2 µM"
compound="CCOCCOC(=O)C1CCC(=O)N1CN(C(C)=O)c1cc(OC)ccc1OC (stereo not given)" parameter_measured=TGI result="> 100 µM"
compound="OC1c2ccccc2CCC1C(O)(C(F)(F)F)C(F)(F)F (stereo not given)" parameter_measured=TGI result="> 100 µM"
compound="O/N=C1/C(=C/c2ccc(Cl)c(Cl)c2)CCCC1C(NO)c1ccc(Cl)c(Cl)c1 (stereo not given)" parameter_measured=TGI result="38.5 µM"
compound="COC1OC(COC(C)=O)C(OC(C)=O)C(OC(C)=O)C1NC(=O)N(CCCl)N=O (stereo not given)" parameter_measured=TGI result="> 100 µM"
compound=Cn1ccc(=O)c2c(O)c3ccccc3c(O)c21 parameter_measured=TGI result="> 100 µM"

From: PubChem BioAssay (NCI)
